# ASSAY_NAME: physchem
# TEST_CONTEXT: pH 7, aqueous buffer, thermodynamic from solid
REPORTED_METRIC: solubility

1) COc1ccccc1OCCNCC(O)COc1cccc2[nH]c3ccccc3c12 (racemic) | ~23 µg/mL

---

# ASSAY_NAME: physchem
# TEST_CONTEXT: pH 5, aqueous buffer, thermodynamic from solid
REPORTED_METRIC: solubility

1. COc1ccccc1OCCNCC(O)COc1cccc2[nH]c3ccccc3c12 (racemic) [Carvedilol] | ~100 µg/mL

---

# ASSAY_NAME: physchem
# TEST_CONTEXT: pH 9, aqueous buffer, thermodynamic from solid
REPORTED_METRIC: solubility

1) COc1ccccc1OCCNCC(O)COc1cccc2[nH]c3ccccc3c12 (racemic) | < 1 µg/mL
